- Protocol Description: folding enthalpy; higher = less favourable; fluorescence melt of hairpins on a sequencing array, two-state fit
- Test Settings: sodium 0.088 M
Lab note: compare folding enthalpy against -30 kcal/mol. Equal or greater, write Yes. Smaller, write No.

In [3]: df
Out[3]:
                                seq_text  label_value
0  GGTATCGAAAGATACACC ((((((....)))..)))          Yes
1      GATCAATTTCTTGATC ((((((....))))))           No
2  GTGTAGACGAAAGTCCAC (((..(((....))))))          Yes

Please indicate if the recorded folding enthalpy for GCCCGACGAAAGTCGGC (((.(((....)))))) meets or exceeds -30 kcal/mol.
Yes

Please indicate if the recorded folding enthalpy for GGAGCAGGAAACTACTCC ((((.((....)).)))) meets or exceeds -30 kcal/mol.
Yes
